From: patent US8703934B2

Target: adenosine A1 receptor (Homo sapiens)
Construct: expressed in transfected cells; host or cells: CHO (Chinese Hamster Ovary)
Sequence (P30542 1-326): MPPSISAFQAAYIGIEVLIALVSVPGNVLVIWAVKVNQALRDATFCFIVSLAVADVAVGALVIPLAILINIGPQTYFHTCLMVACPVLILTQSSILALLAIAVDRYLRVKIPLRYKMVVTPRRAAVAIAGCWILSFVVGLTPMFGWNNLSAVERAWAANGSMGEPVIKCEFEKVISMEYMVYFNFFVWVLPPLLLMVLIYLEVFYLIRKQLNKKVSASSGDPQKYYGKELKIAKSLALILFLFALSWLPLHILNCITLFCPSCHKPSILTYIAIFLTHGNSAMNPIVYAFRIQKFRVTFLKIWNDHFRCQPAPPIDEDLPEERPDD
Test: Indirect determination of adenosine agonism by way of gene expression (luciferase, CHO cells), A1
Type: cell-based
Conditions: CHO cells stably transfected with A1 receptor cDNA; 1 μM forskolin; 50% inhibition of luciferase answer
readout-kind: EC50 (nM)

// solved cases for EC50 follow
{"compound": "CN1CCN(c2c(C#N)c(N)nc(SCc3csc(-c4ccc(Cl)cc4)n3)c2C#N)CC1 [Example 4]", "recorded-value": 12}
{"compound": "N#Cc1c(SCc2csc(-c3ccc(Cl)cc3)n2)nc(N2CCC(O)C2)c(C#N)c1N1CCCCC1 (stereo not drawn) [Example 30]", "recorded-value": 5.7}
{"compound": "N#Cc1c(N)nc(SCc2coc(-c3ccc(Cl)cc3)n2)c(C#N)c1N1CCCCC1 [Example 37]", "recorded-value": 2.2}
{"compound": "N#Cc1c(N)nc(SCc2csc(Nc3ccc(F)cc3)n2)c(C#N)c1N1CCCCC1 [Example 6]", "recorded-value": 45}

a. N#Cc1c(N)nc(SCc2csc(-c3ccc(Cl)cc3)n2)c(C#N)c1N1CCC(O)CC1 [Example 1]
b. COc1nc(SCc2csc(-c3ccc(Cl)cc3)n2)c(C#N)c(N2CCCCC2)c1C#N [Example 35]
c. N#Cc1cnc(SCc2csc(-c3ccc(Cl)cc3)n2)c(C#N)c1N1CCCCC1 [Example 34]
d. N#Cc1c(N)nc(SCc2ccc[n+]([O-])c2)c(C#N)c1N1CCCCC1 [Example 27]
e. N#Cc1c(N)nc(SCc2csc(-c3ccc(Cl)cc3)n2)c(C#N)c1N1CCCCC1 [Example 2]
*Q* Which order do these items take when sorted by rising EC50? List them. Show the ranking through the labels, in the order asked for.
*A* d, e, a, b, c

###

molecular target: adenosine A2a receptor (Homo sapiens); experiment: Indirect determination of adenosine agonism by way of gene expression (luciferase, CHO cells), A2a; conditions: CHO cells stably transfected with A2a receptor cDNA; 50% of maximum luciferase stimulation
Sequence (P29274 whole entry): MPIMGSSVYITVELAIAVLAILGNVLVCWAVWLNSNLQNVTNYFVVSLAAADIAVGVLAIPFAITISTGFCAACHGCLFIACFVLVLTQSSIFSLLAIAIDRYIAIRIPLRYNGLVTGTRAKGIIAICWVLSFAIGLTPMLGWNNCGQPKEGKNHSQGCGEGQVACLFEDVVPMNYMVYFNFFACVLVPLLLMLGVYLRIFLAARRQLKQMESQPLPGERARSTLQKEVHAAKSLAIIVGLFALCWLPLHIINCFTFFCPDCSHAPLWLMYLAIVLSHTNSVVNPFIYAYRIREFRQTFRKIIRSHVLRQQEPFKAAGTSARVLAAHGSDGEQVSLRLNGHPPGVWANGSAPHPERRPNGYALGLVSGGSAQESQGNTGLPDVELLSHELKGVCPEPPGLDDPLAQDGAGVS
readout-kind: EC50 (nM)

Solved entries (count: 3):
{"molecule": "N#Cc1c(N)nc(SCc2coc(-c3ccc(Cl)cc3)n2)c(C#N)c1N1CCCCC1", "unit-abbreviation": "nM", "recorded-value": 357}
{"molecule": "N#Cc1c(N)nc(SCc2csc(-c3ccc(Cl)cc3)n2)c(C#N)c1N1CCCCC1", "unit-abbreviation": "nM", "recorded-value": 385}
{"molecule": "N#Cc1c(N)nc(SCc2ccc[n+]([O-])c2)c(C#N)c1N1CCCCC1", "unit-abbreviation": "nM", "recorded-value": 63}

A. N#Cc1c(SCc2csc(-c3ccc(Cl)cc3)n2)nc(N2CCC(O)C2)c(C#N)c1N1CCCCC1 (stereo not drawn)
B. N#Cc1c(N)nc(SCc2csc(-c3ccc(Cl)cc3)n2)c(C#N)c1N1CCC(O)CC1
*Q* Quick check, higher EC50 between A and B ? Please indicate the selected item by its label.
*A* A
